# System: Escherichia coli TOP10;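 note: peptides expressed intracellularly from a pBAD plasmid library in pooled LB shake-flask culture, induced with 0.3% L-arabinose, DNA abundance read by NGS, three biological replicates, DESeq2 with apeglm shrinkage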
# test summary: shrunken log2 fold change of peptide-encoding DNA abundance (4.5 h post-induction vs induction); higher = less antimicrobial activity (less host growth inhibition)
# reported conditions: time post-induction: 4.5 h; library: site-saturation at positions 5, 18, 19, 20
Could you please report measured shrunken log2 fold change for the items listed next?
Give bare numbers.

Sample answers from the record:
[
  {
    "residue string": "RRIRWRPPRLPRPRPRPDNCPRP",
    "shrunken log2 fold change": -0.015
  },
  {
    "residue string": "RRIRGRPPRLPRPRPRPVNRPRP",
    "shrunken log2 fold change": -0.0382
  },
  {
    "residue string": "RRIRHRPPRLPRPRPRPKYDPRP",
    "shrunken log2 fold change": -0.246
  }
]

Quick batch: shrunken log2 fold change for everything below.
1. RRIRERPPRLPRPRPRPYGMPRP
2. RRIRDRPPRLPRPRPRPYEIPRP
3. RRIRQRPPRLPRPRPRPTSGPRP

OUTPUT:
[-0.207, -0.0176, -0.0104]
